Below is a list of entries, each paired with its recorded pIC50 value.
- target_of_assay: Cytochrome P450 3A4 (Homo sapiens, UniProt P08684)
- Sequence (P08684 whole entry): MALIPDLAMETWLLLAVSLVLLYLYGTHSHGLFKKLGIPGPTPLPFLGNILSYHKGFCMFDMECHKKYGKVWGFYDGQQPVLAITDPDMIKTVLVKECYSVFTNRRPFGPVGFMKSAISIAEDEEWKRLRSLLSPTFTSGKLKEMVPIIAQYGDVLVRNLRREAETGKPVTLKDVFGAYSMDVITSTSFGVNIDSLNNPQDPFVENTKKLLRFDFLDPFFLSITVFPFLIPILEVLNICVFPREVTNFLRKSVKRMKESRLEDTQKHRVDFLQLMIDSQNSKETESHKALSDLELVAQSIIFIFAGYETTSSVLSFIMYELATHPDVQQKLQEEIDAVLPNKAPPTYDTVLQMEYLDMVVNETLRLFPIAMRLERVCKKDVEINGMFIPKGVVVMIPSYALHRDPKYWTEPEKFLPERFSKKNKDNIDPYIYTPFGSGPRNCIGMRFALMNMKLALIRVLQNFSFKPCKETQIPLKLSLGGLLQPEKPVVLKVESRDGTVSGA
- experiment_description: Inhibition of CYP3A4 using BFC substrate in which compound added to reaction mixture simultaneously with BFC substrate by fluorometric assay
- Assay type: ADME
pIC50 (log units): -log10 of the concentration in mol/L.

Recorded pIC50, per entry:
> print(dat)
                         compound.structure  assay.value
1  CCc1ccc(Cc2cc([C@]3(O)C[C@H](CO)[C@@H](O)[C@H](O)[C@H]3O)c(OC)cc2OC)cc1         4.54
2  CCOc1ccc(Cc2ccc(CC)cc2)cc1[C@@H]1C[C@H](CO)[C@@H](O)[C@H](O)[C@H]1O         4.44
3  OC[C@H]1C[C@@H](c2cccc(Cc3ccc(C4CC4)cc3)c2)[C@H](O)[C@@H](O)[C@@H]1O         4.12

Read the next record carefully.
Form entry - test system: Cytochrome P450 3A4 (Homo sapiens, UniProt P08684); read-out: pIC50; compound: "CCc1ccc(Cc2cc([C@@H]3C[C@H](CO)[C@@H](O)[C@H](O)[C@H]3O)c(OC)cc2OC)cc1" 4.59

###

- experiment_description: Apparent volume of distribution during terminal phase in db/db mouse at 10 mg/kg, po administered as single dose by LC-MS/MS system method
- Type: ADME, organism-based
- Parameters: dose 10 mg/kg, route oral
- cond: db/db, in vivo, read-out: Vz/F
readout_label: Vd/F (L/kg)
Return type: number; implicit unit L/kg.

Fill blank: measured Vd/F of the compound "CCOc1ccc(Cc2ccc(CC)cc2)cc1[C@@H]1C[C@H](CO)[C@@H](O)[C@H](O)[C@H]1O" is ____. 3.63

###

- target_of_assay: Cytochrome P450 3A4 (Homo sapiens, UniProt P08684)
- experiment_description: Inhibition of CYP3A4 using BFC substrate in which compound added to reaction mixture before addition of BFC substrate by fluorometric assay
- Type: ADME
List of IC50 values.

Quick one: IC50 of "CCc1ccc(Cc2cc([C@]3(O)C[C@H](CO)[C@@H](O)[C@H](O)[C@H]3O)c(OC)cc2OC)cc1" ? > 50 µM

Same lookup for "COc1ccc(Cc2cccc([C@@H]3C[C@H](CO)[C@@H](O)[C@H](O)[C@H]3O)c2)cc1" , please. > 50 µM

Follow-up item: "CCOc1ccc(Cc2ccc(CC)cc2)cc1[C@@H]1C[C@H](CO)[C@@H](O)[C@H](O)[C@H]1O" > 50 µM

###

- experiment_description: Cmax in db/db mouse at 10 mg/kg, po administered as single dose by LC-MS/MS system method
- Assay type: ADME, organism-based
- Design: dose 10 mg/kg, route oral
- cond: db/db, in vivo
readout_label: Cmax (ng/mL)
Field: numeric (ng/mL). Do not append units.

So what's the measured Cmax for this one? "CCOc1ccc(Cc2ccc(CC)cc2)cc1[C@@H]1C[C@H](CO)[C@@H](O)[C@H](O)[C@H]1O" 3680

###

- target_of_assay: Sodium/glucose cotransporter 2 (Homo sapiens, UniProt P31639)
- Sequence (P31639 whole entry): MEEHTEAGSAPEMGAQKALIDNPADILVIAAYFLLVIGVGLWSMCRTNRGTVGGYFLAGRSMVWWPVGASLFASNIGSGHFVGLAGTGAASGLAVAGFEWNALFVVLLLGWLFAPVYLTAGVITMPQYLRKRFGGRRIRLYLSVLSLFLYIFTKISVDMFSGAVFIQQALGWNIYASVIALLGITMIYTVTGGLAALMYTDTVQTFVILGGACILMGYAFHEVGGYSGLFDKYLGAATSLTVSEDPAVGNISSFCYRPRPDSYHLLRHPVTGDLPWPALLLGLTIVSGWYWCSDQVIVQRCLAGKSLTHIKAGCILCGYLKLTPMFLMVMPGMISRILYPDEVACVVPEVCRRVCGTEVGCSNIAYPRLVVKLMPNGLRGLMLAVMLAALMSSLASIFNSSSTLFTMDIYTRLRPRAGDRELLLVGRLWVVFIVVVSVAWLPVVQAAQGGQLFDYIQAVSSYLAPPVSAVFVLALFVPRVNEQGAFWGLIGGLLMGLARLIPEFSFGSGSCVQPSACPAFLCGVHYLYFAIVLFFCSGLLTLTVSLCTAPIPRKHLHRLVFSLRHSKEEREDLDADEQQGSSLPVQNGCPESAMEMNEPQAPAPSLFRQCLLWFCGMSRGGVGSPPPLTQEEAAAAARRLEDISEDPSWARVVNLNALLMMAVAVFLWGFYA
- experiment_description: Inhibition of human SGLT2 expressed in CHO-K1 cells by [14C]AMG uptake assay
- Type: cell-based
readout_label: pIC50
By convention, pIC50 is the negative base-10 log of a molar concentration.

> print(dat)
                         compound.structure  assay.value
1  CCc1ccc(Cc2ccc(OC)c([C@@H]3C[C@H](CO)[C@@H](O)[C@H](O)[C@H]3O)c2)cc1         7.92
2  COc1ccc(Cc2cccc([C@@H]3C[C@H](CO)[C@@H](O)[C@H](O)[C@H]3O)c2)cc1         7.14
3  CCc1ccc(Cc2cc([C@@H]3C[C@H](CO)[C@@H](O)[C@H](O)[C@H]3O)c(OC)cc2OC)cc1         8.07
4  CCc1ccc(Cc2cc([C@]3(O)C[C@H](CO)[C@@H](O)[C@H](O)[C@H]3O)c(OC)cc2OC)cc1         8.00
5  CCc1ccc(Cc2cc([C@@H]3C[C@H](CO)[C@@H](O)[C@H](O)[C@H]3O)ccc2OC)cc1         8.08

Now let's try a different one.
Item: "OC[C@H]1C[C@@H](c2cccc(Cc3ccc(C4CC4)cc3)c2)[C@H](O)[C@@H](O)[C@@H]1O" Test system: Sodium/glucose cotransporter 2 (Homo sapiens, UniProt P31639) Read-out: pIC50 Value: ? 7.96

Every entry's value here was drawn from ChEMBL document CHEMBL2046440.
